Measured melting point accompanies every entry in the list below.

Example entries and their recorded answers appear below.
Cc1nc(C)n(-c2cc([C@@H]3C[C@H]3c3nc4ccccc4n3C)nc(C#N)n2)n1 (relative stereo); 229 to 231 °C
Cc1nc(C)n(-c2cc([C@H]3C[C@@H]3c3nc4ccccc4n3C)nc(N(C)C)n2)n1 (relative stereo); 164 to 165 °C
Cc1nc(C)n(-c2cc([C@H]3C[C@@H]3c3nc4ccccc4n3C)nc(N3CCCC3)n2)n1 (relative stereo); 180 to 185 °C

// next item, melting point requested
Which measured melting point value corresponds to CNc1nc([C@H]2C[C@@H]2c2nc3ccccc3n2C)cc(-n2nc(C)nc2C)n1 (relative stereo) ?
212 to 214 °C

* * *

Property name: melting point

Cc1nc(C)n(-c2cc([C@H]3C[C@@H]3c3nc4ccccc4n3C)nc(OC(C)C)n2)n1 (relative stereo); 133 to 135 °C
Cc1nc(C)n(-c2cc([C@H]3C[C@@H]3c3nc4ccccc4n3C)nc(C(N)=O)n2)n1 (relative stereo); 119 to 121 °C
Cc1nc(C)n(-c2cc([C@H]3C[C@@H]3c3nc4ccccc4n3C)nc(N3CCOCC3)n2)n1 (relative stereo); 226 to 228 °C

// switching to the query compound
Given the compound CCOc1nc([C@@H]2C[C@H]2c2nc3ccccc3n2C)cc(-n2nc(C)nc2C)n1 (relative stereo) , what is its reported melting point?
82 to 83 °C

* * *

A short record of pKi observed with human PDE10A2 (Homo sapiens (Human)) follows.
Please treat pKi as minus the base-10 logarithm of the molar concentration.

Below, 5 molecules whose answers are already recorded.
COc1ccc(Cc2nc(C)nn2-c2cc(C3CC3c3ccc(C)cn3)nc(C)n2)cc1OC (stereo not shown); 9.68
Cc1nc(C)n(-c2cc([C@H]3C[C@@H]3c3nc4ccccc4n3C)nc(C3CC3)n2)n1 (relative stereo); 9.17
Cc1nc(OCc2ccc3ccccc3n2)cc(-n2nc(C)nc2Cc2nc(C)sc2C)n1; 7.21
COc1ccc(Cc2nc(C)nn2-c2cc(C#Cc3ccc4ccccc4n3)nc(C)n2)nc1OC; 10.14
Cc1nc(C)n(-c2cc([C@H]3C[C@@H]3c3nc4ccccc4n3C)nc(C(F)(F)F)n2)n1 (relative stereo); 8.85

Give the measured pKi of Cc1nc(C)n(-c2cc([C@H]3C[C@@H]3c3nc4ccccc4n3C)nc(N3CCNCC3)n2)n1 (relative stereo) .
8.70

Which pKi is reported for this molecule? Cc1nc(C)n(-c2cc([C@H]3C[C@@H]3c3nc4ccccc4n3C)cnn2)n1 (relative stereo)
7.42

Name the reported pKi value associated with the molecule Cc1nc([C@@H]2C[C@H]2c2nc3ccccc3n2C)cc(-n2nc(C)nc2C(C)(C)C)n1
7.86

* * *

Biological target: human PDE10A2 (Homo sapiens (Human), UniProt Q9Y233)
Sequence (Q9Y233 267-1055): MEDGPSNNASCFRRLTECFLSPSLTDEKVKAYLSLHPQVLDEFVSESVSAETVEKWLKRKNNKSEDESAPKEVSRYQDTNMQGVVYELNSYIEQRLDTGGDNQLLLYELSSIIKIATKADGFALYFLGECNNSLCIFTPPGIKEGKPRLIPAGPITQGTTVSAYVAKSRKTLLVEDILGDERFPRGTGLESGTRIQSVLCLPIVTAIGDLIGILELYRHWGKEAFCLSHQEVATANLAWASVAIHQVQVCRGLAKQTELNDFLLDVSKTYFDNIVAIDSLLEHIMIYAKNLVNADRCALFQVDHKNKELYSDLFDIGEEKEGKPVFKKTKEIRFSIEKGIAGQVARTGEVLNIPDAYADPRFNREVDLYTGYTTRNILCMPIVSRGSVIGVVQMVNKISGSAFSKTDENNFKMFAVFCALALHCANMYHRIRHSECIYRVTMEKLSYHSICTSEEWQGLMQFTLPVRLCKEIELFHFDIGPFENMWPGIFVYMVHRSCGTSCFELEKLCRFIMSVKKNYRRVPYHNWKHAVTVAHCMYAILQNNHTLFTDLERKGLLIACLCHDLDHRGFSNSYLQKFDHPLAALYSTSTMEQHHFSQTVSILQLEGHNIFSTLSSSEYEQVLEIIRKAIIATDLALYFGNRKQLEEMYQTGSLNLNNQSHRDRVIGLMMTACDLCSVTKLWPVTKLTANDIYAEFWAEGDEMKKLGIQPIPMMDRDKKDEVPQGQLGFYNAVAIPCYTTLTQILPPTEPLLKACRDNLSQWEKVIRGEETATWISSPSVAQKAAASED
Assay: PDE10 fluorescence polarization (IMAP FP) inhibition assay
Format: biochemical
Settings: FAM-labeled cAMP 50 nM, room temperature, read-out: PDE10a Ki
Property name: pKi
// pKi: -log10(molar conc.)

Worked examples follow.
CO[C@@H](C)c1nc(C)nn1-c1cc([C@@H]2C[C@H]2c2nc3ccccc3n2C)nc(C)n1 [Cpd 95]; 8.68
Cc1nc([C@@H]2C[C@H]2c2nc3ccccc3[nH]2)cc(-n2nc(C)nc2C)n1 [Cpd 89]; 8.59
COc1ccc(Cc2nc(C)nn2-c2cc(C3CC3c3cc4n(n3)CCC4)nc(C)n2)cc1OC (centres unmarked) [Cpd 42]; 9.30
COc1nc([C@H]2C[C@@H]2c2nc3ccccc3n2C)cc(-n2nc(C)nc2C)n1 (relative stereo) [Cpd 111]; 8.89
COCCOc1nc([C@@H]2C[C@H]2c2nc3ccccc3n2C)cc(-n2nc(C)nc2C)n1 [Cpd 65]; 8.97
Cc1nc(C2CC2c2nc3ccccc3n2C)cc(-n2nc(C)nc2C(C)C)n1 (centres unmarked) [Cpd 56]; 8.77

What does the record list as pKi for Cc1nc([C@H]2C[C@@H]2c2nc3ccccc3s2)cc(-n2nc(C)nc2C)n1 (relative stereo) [Cpd 129] ?
7.37

What measured pKi goes with Cc1nc([C@@H]2C[C@H]2c2nc3ccccc3n2C)cc(-n2cnc(C)n2)n1 [Cpd 77] ?
8.05

Give the measured pKi of Cc1nc(C2CC2c2nc3ccc(OC(F)F)cc3[nH]2)cc(-n2nc(C)nc2C)n1 (centres unmarked) [Cpd 60] .
7.24

Param item = Cc1nc([C@@H]2C[C@H]2c2nc3ccccc3n2C)cc(-n2nc(C)nc2CF)n1 [Cpd 93] ; retrieve measured pKi.
8.51

Name the recorded pKi for COC[C@H](C)Oc1nc([C@@H]2C[C@H]2c2nc3ccccc3n2C)cc(-n2nc(C)nc2C)n1 [Cpd 67] .
9.05

What does the record list as pKi for Cc1nc(C2CC2c2nc3cccc(C)c3[nH]2)cc(-n2nc(C)nc2C)n1 (centres unmarked) [Cpd 55] ?
7.77

Suppose we examine the molecule Cc1nc(C2CC2c2nc3ccccc3n2-c2ccccc2)cc(-n2nc(C)nc2C)n1 (centres unmarked) [Cpd 51] ; what pKi value has been reported?
7.41

Requested read-out: pKi. Entry: Cc1nc(C)n(-c2cc([C@@H]3C[C@H]3c3nc4ccccc4n3C)nc(OCC3(C)CC3)n2)n1 [Cpd 137]
9.08
